These entries and their values trace back to ChEMBL document CHEMBL1697781.

Below is a list of entries, each paired with its recorded Composite Activity - Active value.
- Test system: Hepatotoxicity
- assay.protocol: FDA HLAED, liver enzyme composite activity
- condition.info: human
Kindly provide the number alone.

Examples with their reported Composite Activity - Active follow.
>  <compound>
CCOC(=O)[C@H](CCc1ccccc1)N[C@@H](C)C(=O)N1CCC[C@H]1C(=O)O

>  <measurement.name>
Composite Activity - Active

>  <reported>
0

$$$$
>  <compound>
CC(=O)N(CC(O)CO)c1c(I)c(C(=O)NCC(O)CO)c(I)c(C(=O)NCC(O)CO)c1I (stereo not given) [IOHEXOL]

>  <measurement.name>
Composite Activity - Active

>  <reported>
0

$$$$
>  <compound>
CCNC(C)Cc1cccc(C(F)(F)F)c1 (stereo not given)

>  <measurement.name>
Composite Activity - Active

>  <reported>
0

$$$$
>  <compound>
NCCC(O)(P(=O)(O)O)P(=O)(O)O

>  <measurement.name>
Composite Activity - Active

>  <reported>
2

$$$$

// below: Composite Activity - Active requested for another compound
Form field, Composite Activity - Active with Hepatotoxicity, item `CN(C/C=C/C#CC(C)(C)C)Cc1cccc2ccccc12` : 0
